# Lookup of reported ACE2 Inhibition (%) keyed by entry
assay target: T1, SARS-CoV-2 spike receptor binding domain (RBD) (SARS-CoV-2, UniProt P0DTC2 319-541)
T1 construct: also called SARS-CoV RBD
procedure details: RBD/ACE2 competition; RBD binding to ACE2 on HEK-293 cells

binder	output unit	ACE2 Inhibition (%)
SARS2-5H12_f3 (antibody, V domains shown, also called antibody number 7) VH: QVQLVQSGAEVKKPGTSVKVSCKTSGYTFPSYDIIWVRQATGQGLEWMGWMSPKNGNTGFAQRFQGRVTMTRNTSISTAYMELSSLRSEDTAVYYCARFGYGSGALGYYYYGLDVWGQGTTVTVSS VL: EIVLTQSPGTLSLSPGERATLSCRASQSVRSSHLAWYRQKPGQAPRLLIYGASSRATGIPDRFSGRGSGTDFTLTISRLEPEDFAVYYCQQYNFSPITFGQGTRLEIK	%	100
SARS2-8H4_f3 (antibody, V domains shown, also called antibody number 9) VH: QVQLVQSGAEVKKPGASVKVSCKASGYTFTSYDITWVRQATGQGLEWMGWMSPNSGNTGYAQKFQGRVTMTRNTSISTAYMELSSLRSEDTAVYYCARFGYGSGALDYYYYGLDVWGQGTTVTVSS VL: EIVLTQSPGTLSLSPGERATLSCRASQSVRSSHLAWYQQKPGQAPRLLIYGASSRATGIPDRFSGSGSGTDFTLTISRLEPEDFAVYYCQQFGSSPITFGQGTRLEIK	%	93
SARS2-5D7_f3 (antibody, V domains shown, also called antibody number 6) VH: QVQLVQSGAEVKKPGTSVKVSCKTSGYTFTSYDIIWVRQATGQGLEWMGWMSPKNGNTGYAQRFQGRVTMTRNTSISTAYMELSSLRSEDTAVYYCARFGYGSGALDYYYYGLDVWGQGTTVTVSS VL: EIVLTQSPGTLSLSPGERATLSCRASQSVRSSHLAWYRQKPGQAPRLLIYGASSRATGIPDRFSGRGSGTDFTLTISRLEPEDFAVYYCQQYNISPITFGQGTRLEIK	%	97
SARS2-1D5_f3 (antibody, V domains shown, also called antibody number 2) VH: QVQLVQSGAEVKKPGASVKVSCKASGYTFTSYDITWVRQATGQGLEWMGWMSPNSGNTGYAQKFQGRVTMTRNTSISTAYMELNSLRSEDTAVYYCARFGYGSGALDYYYYGLDVWGQGTTVTVSS VL: EIVLTQSPGTLSLSPGDRATLSCRASQSVRSSHLAWYQQKPGQAPRLLIYGASSRATGIPDRFSGSGSGTDFSLTISRLEPEDFAVYYCQQFGSSPITFGQGTRLEIK	%	94
SARS2-19C4_f3 (antibody, V domains shown, also called antibody number 20; family A) VH: EVQLVETGGGLIQPGGSLRLSCAASGITVSSNYMNWVRQAPGKGLEWVSVIYSGGSTFYADSVKGRFTISRDNSKNTLYLQMNSLRAEDTAVYYCARDLEVAGGFDIWGQGTMVTVSL VL: DIQLTQSPSFLSASVGDRVTITCRASQGISSYLAWYQQKPGKAPKVLIYAASTLQSGVPSRFSGSGSGTKFTLTISSLQPEDFATYYCQQLNSFPPSTFGQGTKLEIK	%	89
SARS2-10D6_f3 (antibody, V domains shown, also called antibody number 11; family A) VH: EVQLVETGGGLIQPGGSLRLSCAASGITVSSNYMNWVRQAPGKGLEWVSVIYSGGSTYYADSVKGRFTISRDNSKNTLYLQMNSLRAEDTAVYYCARDLELAGAFDIWGQGTMVTVSL VL: DIQLTQSPSFLSASVGDRVTITCRASQGISSYLAWYQQKPGKAPKVLIYAASTLQSGVPSRFSGSGSGTEFTLTISSLQPEDFATYYCQQLNSYPPSTFGQGTKLEIK	%	81
SARS2-1C12_f3 (antibody, V domains shown, also called antibody number 1) VH: QVQLVQSGAEVKKPGASVKVSCKASGYTFTSYDITWVRQATGQGLEWMGWMSPNSGNTGYTQKFQGRVTMTRNTSISTAYMELSSLRSEDTAVYYCARFGYGSGALDYYYYGLDVWGQGTTVTVSS VL: EIVLTQSPGTLSLSPGERATLSCRASQSVRSSHLAWYQQKPGQAPRLLIYGASSRATGIPDRFSGSGSGTDFTLTISRLEPEDFAVYYCQQYNNSPITFGQGTRLEIK	%	88
SARS2-16C5_f3 (antibody, V domains shown, also called antibody number 15; family B) VH: QVQLVQSGAEVKKPGASVKVSCKASGYTFTSYDIIWVRQATGQGLEWMGWMSPNSGNTGYAQKFQGRVTMTRNTSIGTAYMELSSLRSEDTAVYFCARFGYGSGALDYYYYGLDVWGQGTTVTVSS VL: EIVLTQSPGTLSLSPGERATLSCRASQSVRSSHLAWYQQKPGQAPRLLIYGASSRATGIPDRFSGSGSGTDFTLTISRLEPEDFAVYYCQQYNNSPITFGQGTRLEIK	%	94
SARS2-11D5_f3 (antibody, V domains shown, also called antibody number 12) VH: EVQLVETGGGLIQPGGSLRLSCAASGITVSSNYMSWVRQAPGKGLEWVSVIYSGGSTYYADSVKGRFTISRDNSKNTLYLQMNSLRAEDTAVYYCARDLAVAGAFDIWGQGTMVTVSL VL: DIQLTQSPSFLSASVGDRVTITCRASQGISSYLAWYQQKPGKAPKVLIYAASTLQSGVPSRFSGSGSGTEFTLTISSLQPEDFATYYCQQLNSYPPSTFGQGTKLEIK	%	66
